Items are presented alongside their recorded IC50.
- Tested on: SK-MEL-5 cells
- assay summary: Alamar Blue cell viability/cytotoxicity assay, SK-MEL-5
- Type: cell-based, human
- experimental conditions: Homo sapiens, SK-MEL-5, 48 h

compound: O=C(O)CNCP(=O)(O)O [Glyphosate, N-phosphonomethyl-glycine]
relation symbol: >
IC50 (µM): 1000

compound: O=[N+]([O-])NC1=NCCN1Cc1ccc(Cl)nc1 [Imidacloprid, imidacloprid]
relation symbol: =
IC50 (µM): 319

====

- Tested on: HepG2 cells
- assay summary: Alamar Blue cell viability/cytotoxicity assay, HepG2
- Type: cell-based, human
- experimental conditions: Homo sapiens, HepG2, 48 h
Items are presented alongside their recorded IC50.

compound: O=[N+]([O-])NC1=NCCN1Cc1ccc(Cl)nc1
relation symbol: =
IC50 (µM): 620
--
compound: O=C(O)CNCP(=O)(O)O [Glyphosate, N-phosphonomethyl-glycine]
relation symbol: >
IC50 (µM): 1000
